assayed.target: PDE10 (Mus musculus, UniProt Q8CA95)
Sequence (Q8CA95 whole entry, looked up): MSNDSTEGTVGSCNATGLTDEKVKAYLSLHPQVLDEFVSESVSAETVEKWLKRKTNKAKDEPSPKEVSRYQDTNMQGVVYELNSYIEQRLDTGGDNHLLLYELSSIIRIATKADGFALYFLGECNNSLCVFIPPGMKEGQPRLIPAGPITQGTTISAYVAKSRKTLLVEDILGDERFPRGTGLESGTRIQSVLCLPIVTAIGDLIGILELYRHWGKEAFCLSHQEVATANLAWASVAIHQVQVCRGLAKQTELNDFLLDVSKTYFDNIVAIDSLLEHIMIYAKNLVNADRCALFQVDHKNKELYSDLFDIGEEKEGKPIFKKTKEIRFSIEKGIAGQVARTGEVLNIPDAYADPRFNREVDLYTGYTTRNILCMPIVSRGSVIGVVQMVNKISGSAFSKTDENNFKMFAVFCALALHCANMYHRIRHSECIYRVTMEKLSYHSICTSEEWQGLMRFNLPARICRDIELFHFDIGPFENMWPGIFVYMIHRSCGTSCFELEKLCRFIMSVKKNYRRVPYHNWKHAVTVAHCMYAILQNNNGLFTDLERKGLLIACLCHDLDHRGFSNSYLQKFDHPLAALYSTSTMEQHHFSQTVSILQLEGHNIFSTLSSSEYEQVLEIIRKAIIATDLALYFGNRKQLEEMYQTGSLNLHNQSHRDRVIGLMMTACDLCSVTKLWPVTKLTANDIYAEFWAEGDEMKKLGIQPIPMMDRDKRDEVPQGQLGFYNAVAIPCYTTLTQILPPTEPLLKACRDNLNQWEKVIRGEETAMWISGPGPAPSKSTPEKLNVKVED
procedure.details: PDE10 enzyme inhibition, IMAP TR-FRET assay
Format: biochemical
particulars: IC50 class against PDE10, Table IA
reported.property: IC50

Please look up its IC50: FC(F)(F)c1cc(-c2cccnc2Oc2ccc(Cc3nc4ccccc4[nH]3)cc2)ccn1 [Example 62]
100 to 250 nM

====

assayed.target: PDE10 (Mus musculus, UniProt Q8CA95)
procedure.details: PDE10 enzyme inhibition, IMAP TR-FRET assay
Format: biochemical
particulars: IC50 class against PDE10, Table IIA
pIC50: −log10 of the molar value.
reported.property: pIC50

pIC50 lookup needed for `COc1cnccc1-c1cccnc1Oc1ccc(Nc2nc3ccccc3s2)cc1` , thanks.
> 7.60
